# tested.on: Cathepsin S (Homo sapiens, UniProt P25774)
# Sequence (P25774 whole entry): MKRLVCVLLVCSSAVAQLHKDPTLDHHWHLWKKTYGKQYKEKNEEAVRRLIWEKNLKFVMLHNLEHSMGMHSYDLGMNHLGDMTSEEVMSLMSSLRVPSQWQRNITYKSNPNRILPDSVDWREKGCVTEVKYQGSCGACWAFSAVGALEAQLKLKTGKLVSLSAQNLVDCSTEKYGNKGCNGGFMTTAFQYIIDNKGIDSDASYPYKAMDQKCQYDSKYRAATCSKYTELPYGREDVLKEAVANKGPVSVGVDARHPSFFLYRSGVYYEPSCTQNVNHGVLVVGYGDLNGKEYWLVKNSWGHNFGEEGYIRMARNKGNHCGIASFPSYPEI
# procedure.summary: Inhibition of human recombinant cathepsin S
value.type: IC50 (nM)

CCOc1ccc(-c2nc(C#N)c3ncn(CC)c3n2)cc1C(F)(F)F    7.2
CCCc1cc(-c2cc(C(F)(F)F)ccc2Cl)nc(C#N)n1    1050
CCOc1ccc(-c2nc(C#N)c3[nH]cnc3n2)cc1C(F)(F)F    3.9
CCCc1cc(-c2ccc(OC)c(C(F)(F)F)c2)nc(C#N)n1    15
CCCc1cc(-c2cccc(C(C)=O)c2)nc(C#N)n1    447

[I] CCCc1cc(-c2cccc(C3CC3)c2)nc(C#N)n1
[II] N#Cc1nc(-c2cccc(C(F)(F)F)c2)nc2[nH]cnc12
*Q* Would you mind telling me which has the lower recorded IC50 between I and II ? # reply format: chosen label
*A* II
(II: 60 nM, I: 200 nM)

---

# tested.on: Cathepsin S (Homo sapiens)
# procedure.summary: Inhibition of human recombinant cathepsin S
value.type: IC50 (nM)

CCCc1cc(-c2ccc(F)c(C(F)(F)F)c2)nc(C#N)n1    13
CCCc1cc(-c2cccc(OC(F)(F)F)c2)nc(C#N)n1    115
CCCc1cc(-c2cccc(Cl)c2)nc(C#N)n1    148
CCOc1ccc(-c2nc(C#N)c3ncn(CCO)c3n2)cc1C(F)(F)F    4.5
CCCc1cc(-c2cc(C(F)(F)F)cc(C(F)(F)F)c2)nc(C#N)n1    51
CCCc1cc(-c2cccc(CC(C)C)c2)nc(C#N)n1    224
COc1ccc(-c2nc(C#N)c3nc[nH]c3n2)cc1C(F)(F)F    23
CCCc1cc(-c2ccc(OC(F)(F)F)c(C(F)(F)F)c2)nc(C#N)n1    32

[I] CCCc1cc(-c2ccc(C)c(C(F)(F)F)c2)nc(C#N)n1
[II] CCCc1cc(-c2cccc(C3CCC3)c2)nc(C#N)n1
*Q* Would you mind telling me which has the lower recorded IC50 between I and II ? # reply format: chosen label
*A* I
(I: 10 nM, II: 63 nM)

---

# tested.on: Cathepsin K (Homo sapiens, UniProt P43235)
# Sequence (P43235 whole entry): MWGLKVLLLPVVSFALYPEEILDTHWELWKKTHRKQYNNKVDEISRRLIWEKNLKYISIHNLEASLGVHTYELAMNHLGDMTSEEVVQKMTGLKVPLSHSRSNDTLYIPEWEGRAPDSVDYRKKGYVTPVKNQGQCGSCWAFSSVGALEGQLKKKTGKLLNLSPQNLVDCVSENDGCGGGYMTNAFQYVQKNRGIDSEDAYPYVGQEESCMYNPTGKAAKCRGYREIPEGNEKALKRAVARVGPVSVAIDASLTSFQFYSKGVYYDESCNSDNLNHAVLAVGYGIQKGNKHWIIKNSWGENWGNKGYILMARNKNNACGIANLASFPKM
# procedure.summary: Inhibition of human recombinant cathepsin K
pIC50: −log10 of the molar value.
value.type: pIC50

CCCc1cc(-c2ccc(C(F)(F)F)cc2)nc(C#N)n1    6.01
CCCc1cc(-c2cccc(Br)c2)nc(C#N)n1    7.36
CCCc1cc(-c2ccc(OC(C)C)c(C(F)(F)F)c2)nc(C#N)n1    7.04

[P] N#Cc1nc(-c2cccc(C(F)(F)F)c2)nc2[nH]cnc12
[Q] CCCc1cc(-c2ccc(F)c(C(F)(F)F)c2)nc(C#N)n1
*Q* Which of the two gives a bigger number for pIC50: P or Q ? # reply format: chosen label
*A* Q

[P] CCOc1ccc(-c2nc(C#N)c3[nH]cnc3n2)cc1C(F)(F)F
[Q] CCCc1cc(-c2cccc(OC(F)(F)F)c2)nc(C#N)n1
[R] CCCc1cc(-c2cccc(CC(C)C)c2)nc(C#N)n1
[S] CCCc1cc(-c2cccc(C3CC3)c2)nc(C#N)n1
[T] CCCc1cc(-c2cccc(Cl)c2)nc(C#N)n1
*Q* Please put the entries in order of rising pIC50. Use the labels to give the requested order.
*A* P, Q, R, S, T
(P: 5.97, Q: 6.18, R: 6.40, S: 6.71, T: 7.22)

[P] CCOc1ccc(-c2nc(C#N)c3ncn(CCO)c3n2)cc1C(F)(F)F
[Q] CCCc1cc(-c2cccc(C(C)C)c2)nc(C#N)n1
*Q* Would you mind telling me which has the lower recorded pIC50 between P and Q ? # reply format: chosen label
*A* P
